- target_system: JAK1 (Homo sapiens (Human), UniProt P23458)
- Sequence (P23458 whole entry): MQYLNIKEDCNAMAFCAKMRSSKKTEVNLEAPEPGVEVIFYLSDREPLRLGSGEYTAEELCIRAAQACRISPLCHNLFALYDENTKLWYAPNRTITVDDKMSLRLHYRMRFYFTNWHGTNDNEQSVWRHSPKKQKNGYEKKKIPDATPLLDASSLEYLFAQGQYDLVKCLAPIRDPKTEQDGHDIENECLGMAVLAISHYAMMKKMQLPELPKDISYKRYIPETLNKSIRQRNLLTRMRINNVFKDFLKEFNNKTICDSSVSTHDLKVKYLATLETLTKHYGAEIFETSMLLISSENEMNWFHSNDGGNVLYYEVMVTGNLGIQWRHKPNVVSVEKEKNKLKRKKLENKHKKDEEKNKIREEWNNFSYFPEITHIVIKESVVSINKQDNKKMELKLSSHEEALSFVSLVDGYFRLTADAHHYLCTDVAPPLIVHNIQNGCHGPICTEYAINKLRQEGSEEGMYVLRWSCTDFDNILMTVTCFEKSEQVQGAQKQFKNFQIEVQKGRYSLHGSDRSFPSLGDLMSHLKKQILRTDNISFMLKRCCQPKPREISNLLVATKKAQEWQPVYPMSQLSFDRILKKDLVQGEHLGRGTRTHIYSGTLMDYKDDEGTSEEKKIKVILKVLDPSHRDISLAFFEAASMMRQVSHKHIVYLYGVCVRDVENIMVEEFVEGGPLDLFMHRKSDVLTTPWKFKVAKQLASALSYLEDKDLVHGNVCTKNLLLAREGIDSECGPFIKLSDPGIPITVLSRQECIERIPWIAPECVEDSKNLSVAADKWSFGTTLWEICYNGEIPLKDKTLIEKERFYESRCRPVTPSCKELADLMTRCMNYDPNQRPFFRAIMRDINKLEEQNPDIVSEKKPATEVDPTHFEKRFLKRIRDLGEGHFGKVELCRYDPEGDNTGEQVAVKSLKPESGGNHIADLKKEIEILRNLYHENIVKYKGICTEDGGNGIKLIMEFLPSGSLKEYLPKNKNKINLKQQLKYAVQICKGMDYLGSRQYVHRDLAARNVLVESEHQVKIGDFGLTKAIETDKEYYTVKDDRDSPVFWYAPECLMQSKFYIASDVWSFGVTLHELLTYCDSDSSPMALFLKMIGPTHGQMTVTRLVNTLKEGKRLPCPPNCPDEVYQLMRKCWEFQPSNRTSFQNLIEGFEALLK
- assay_details: pSTAT3 Cell Assay (MSD, TF1 cells)
- Assay type: cell-based
- condition_context: IL-6 stimulation, MSD
Reported IC50 values for a set of molecules

Worked set:
| molecule | target_system | IC50 |
| --- | --- | --- |
| CC(=O)Nc1cc(Nc2cc(C)nc(C(C)(F)F)n2)c(-c2cc3n(n2)CCN(C)C3)cn1 | JAK1 (Homo sapiens (Human), UniProt P23458) | 100 to 1000 nM |
| COCCOc1cnc(NC(C)=O)cc1Nc1cc(C2CC2)nc(C(C)(F)F)n1 | JAK1 (Homo sapiens (Human), UniProt P23458) | ≥ 1000 nM |
| CCOc1cnc(NC(C)=O)cc1Nc1cc(OC)nc(C(C)(F)F)n1 | JAK1 (Homo sapiens (Human), UniProt P23458) | ≥ 1000 nM |
| CCOc1cnc(NC(C)=O)cc1Nc1cc(-c2cnn(C3CC3)c2)nc(C(C)(F)F)n1 | JAK1 (Homo sapiens (Human), UniProt P23458) | ≥ 1000 nM |
| CCc1cc(Nc2cc(NC(C)=O)ncc2OC)nc(C(C)(F)F)n1 | JAK1 (Homo sapiens (Human), UniProt P23458) | ≥ 1000 nM |

Identify the measured IC50 of "CCOc1cnc(NC(C)=O)cc1Nc1cc(-c2cnn(C)c2)nc(C(C)(F)F)n1" for JAK1 (Homo sapiens (Human), UniProt P23458).
≥ 1000 nM

Identify the measured IC50 of CC(=O)Nc1cc(Nc2cc(OC3CC3)nc(C(C)(F)F)n2)c(OCC2CCCO2)cn1 (stereo not drawn) for JAK1 (Homo sapiens (Human), UniProt P23458).
≥ 1000 nM

Identify the measured IC50 of "CC(=O)Nc1cc(Nc2cc(C)nc(C(C)(C)F)n2)c(-c2cc(C)ncn2)cn1" for JAK1 (Homo sapiens (Human), UniProt P23458).
≥ 1000 nM

Identify the measured IC50 of "COCCOc1cnc(NC(C)=O)cc1Nc1cc(C(C)C)nc(C(C)(F)F)n1" for JAK1 (Homo sapiens (Human), UniProt P23458).
≥ 1000 nM

Identify the measured IC50 of "COCCOc1cnc(NC(C)=O)cc1Nc1cc(C)nc(C(C)(F)F)n1" for JAK1 (Homo sapiens (Human), UniProt P23458).
≥ 1000 nM

Identify the measured IC50 of "CC(=O)Nc1cc(Nc2cc(C)nc(C(C)(F)F)n2)c(OCC[C@@H](C)F)cn1" for JAK1 (Homo sapiens (Human), UniProt P23458).
≥ 1000 nM
